Source of measurements: patent EP1038870A1

- protocol.text: Photochromic properties of lens samples (2 mm, compound in the mass of cross-linked matrix I or II) exposed to UV radiation from a xenon lamp
- Format: physicochemical
- conditions.used: lens sample, Matrix II (50/50 D121 / PEGDMA 400 copolymer)
Decide using TD15: the transmission after 15 minutes' exposure to UV alone. Strictly below 10%: class 1. Equal to or above 10%: class 0.

## Task Does COc1ccc(C2(c3ccc(OC)cc3OC)C=Cc3c(c(C(=O)N4CCc5ccccc54)cc4ccccc34)O2)c(OC)c1 have TD15: the transmission after 15 minutes' exposure to UV strictly under 10%?
## Result class 1

## Task A record lists COc1ccc(C2(c3ccc(OC)cc3OC)C=Cc3c(c(C(=O)N4CCCCC4)cc4ccccc34)O2)c(OC)c1 . Is its TD15: the transmission after 15 minutes' exposure to UV below 10%?
## Result class 0

## Task # check: TD15: the transmission after 15 minutes' exposure to UV < 10% for COc1ccc(C2(c3ccc(OC)c(OC)c3)C=Cc3c(c(C(=O)N4CCOCC4)cc4ccccc34)O2)c(OC)c1 (stereo not drawn)
## Result class 0

## Task is_below(TD15: the transmission after 15 minutes' exposure to UV, 10%) for C1=CC(c2ccccc2)(c2ccccc2)Oc2ccc3ccccc3c21 [Control, 3,3-bisphenyl-3H-naphtho[2,1-b]pyran, reference compound] ?
## Result class 0

## Task In the record for COc1ccc(C2(c3ccc(N4CCCCC4)cc3)C=Cc3c(c(C(=O)N4CCCCC4)cc4ccccc34)O2)c(OC)c1 (stereo not drawn) , is TD15: the transmission after 15 minutes' exposure to UV less than 10%?
## Result class 0

## Task Field: below-cutoff. Rule: recorded TD15: the transmission after 15 minutes' exposure to UV strictly less than 10%. Subject: COc1ccc(C2(c3ccc(OC)cc3OC)C=Cc3c(c(C(=O)N4CCOCC4)cc4ccccc34)O2)cc1 (stereo not drawn)
## Result class 1
